# target system: ANGPTL2
# test conditions: ASO, 5 µM
After the bases stand the sugars from the 5' end (letter, count) and the backbone: PS all phosphorothioate, else s phosphorothioate and o phosphodiester by linkage. Methylation of C is not given here. l = locked nucleic acid (LNA); d = 2'-deoxy (DNA)
Values of target mRNA inhibition greater than or equal to 50% map to y; values below map to n.

[
  {
    "sequence data": "GAACTCAGCCCAGTAGA (sugars l1 d14 l2, PS)",
    "target system": "ANGPTL2",
    "category": "n"
  },
  {
    "sequence data": "ATGATGCGGTTGTAGGT (sugars l2 d13 l2, PS)",
    "target system": "ANGPTL2",
    "category": "y"
  },
  {
    "sequence data": "ATTTACTGTCTGCCCAG (sugars l2 d12 l3, PS)",
    "target system": "ANGPTL2",
    "category": "y"
  }
]

Query string: Does ATGAAGTCAGTCAGAGCCT (sugars l1 d16 l2, PS) have a reported target mRNA inhibition of at least 50%?
Result string: n

Query string: Does CAGGCACACTAATGAGA (sugars l2 d12 l3, PS) have a reported target mRNA inhibition of at least 50%?
Result string: n

Query string: Does GAGTTCATGTTGCGGC (sugars l1 d13 l2, PS) have a reported target mRNA inhibition of at least 50%?
Result string: n

Query string: Does AGATGAATATAGTTCTC (sugars l4 d10 l3, PS) have a reported target mRNA inhibition of at least 50%?
Result string: y

---

# target system: DGAT2
# test conditions: ASO, HepG2, 0.12 µM
After the bases stand the sugars from the 5' end (letter, count) and the backbone: PS all phosphorothioate, else s phosphorothioate and o phosphodiester by linkage. Methylation of C is not given here. e = 2'-O-(2-methoxyethyl) (MOE); d = 2'-deoxy (DNA)
measurement kind: target mRNA inhibition
Give your result as the value with the unit written after it.

Consider the following illustrative entries.
[
  {
    "sequence data": "ATGGAGCTCAGAGACTCAGC (sugars e3 d14 e3, PS)",
    "measurement kind": "target mRNA inhibition",
    "observed measurement": "71%"
  },
  {
    "sequence data": "TTGTGTGTCTTCACCAGCTG (sugars e2 d13 e5, PS)",
    "measurement kind": "target mRNA inhibition",
    "observed measurement": "71%"
  },
  {
    "sequence data": "CATCAGGTACTCCCTCAACA (sugars e5 d10 e5, PS)",
    "measurement kind": "target mRNA inhibition",
    "observed measurement": "35%"
  },
  {
    "sequence data": "GGACAGGAGGGTCACACACA (sugars e5 d10 e5, PS)",
    "measurement kind": "target mRNA inhibition",
    "observed measurement": "45%"
  },
  {
    "sequence data": "CTTTTAAATAACCCACAGAC (sugars e5 d10 e5, PS)",
    "measurement kind": "target mRNA inhibition",
    "observed measurement": "0%"
  },
  {
    "sequence data": "CAGGCATGGAGCTCAGAGAC (sugars e3 d14 e3, PS)",
    "measurement kind": "target mRNA inhibition",
    "observed measurement": "76%"
  }
]

Give me target mRNA inhibition for each of these sequences, listed below.
1. GGAGTAGGGCACCAGCCCCC (sugars e5 d10 e5, PS)
2. GCTCACTTCTGTGGCCTCTG (sugars e5 d10 e5, PS)
3. GTATCCAAAGATATAGTTCC (sugars e5 d10 e5, PS)

Result string:
1: 17%; 2: 41%; 3: 8%

Give me target mRNA inhibition for each of these sequences, listed below.
1. GAAAGTAGTCTCGAAAGTAG (sugars e5 d10 e5, PS)
2. TATTTGAAGATAAAGTCAGA (sugars e5 d10 e5, PS)
3. CATTGCCACTCCCATTCTTT (sugars e5 d10 e5, PS)

Result string:
1: 0%; 2: 0%; 3: 44%
